Tested on: human SKM-1 acute myeloid leukemia cells
Experiment: SKM-1 antiproliferation cell-based assay (ATPlite)
Conditions: Homo sapiens, SKM-1, 96 h, SKM-1 antiproliferation assay, 4 days, Table C2
measurementName: GI50

1) Cn1ccn(-c2ccc(-c3cc(F)cc(-c4ccnc(N5CCN(CC6CCC6)CC5)c4)c3O)cc2Cl)c1=O | 0.3 to 30 nM
2) C[C@@H]1CN(c2cc(-c3cc(F)cc(-c4ccc(-n5ccn(C)c5=O)c(F)c4)c3O)ccn2)CCN1 | 0.3 to 30 nM
3) O=C1CCCN1c1ccc(-c2c[nH]cc(-c3cccc(N4CCNCC4)c3)c2=O)cc1F | ≥ 3000 nM
4) CN1CCN(c2ccc(-c3cc(F)cc(-c4ccnc(N(C)CCN)c4)c3O)cc2Cl)C1=O | 300 to 3000 nM
5) Cn1ccn(-c2ccc(-c3cc(F)cc(-c4cc(N5CC[C@H](N)C5)c5nc[nH]c5c4)c3O)cc2Cl)c1=O | 0.3 to 30 nM

Need GI50 of CN1CCN(c2ccc(-c3cc(F)cc(-c4ccc(=O)n(C5CCNCC5)c4)c3O)cc2Cl)C1=O , thanks.
30 to 300 nM

Need GI50 of CN1CCN(c2ccc(-c3cccc(-c4cncc(N5CCC(N)CC5)c4)c3O)cc2Cl)C1=O , thanks.
30 to 300 nM

====

The following compounds are listed with their measured pIC50 values.
Target: human BRD4 bromodomain II (Homo sapiens)
Construct: human BRD4 bromodomain II [based on Genbank NM_058243, residues 349-460]; host or cells: E. coli
Assay: Bromodomain binding assay (AlphaScreen), BRD4 BDII
Details: AlphaScreen assay, Table C2; read-out: BRD4 BDII IC50
pIC50: −log10 of the molar value.

1. CN(C)C1(C)CCN(c2cc(-c3cc(F)cc(-c4ccc(-n5ccn(C)c5=O)c(Cl)c4)c3O)ccn2)C1 (stereo not drawn) | 9.00 to 11.00
2. Cn1ccn(-c2ccc(-c3cc(F)cc(-c4cc(N5CC[C@](C)(N)C5)n(C)c(=O)c4)c3O)cc2Cl)c1=O | 8.00 to 9.00
3. C[C@@H]1CN(c2cc(-c3cc(F)cc(-c4ccc(-n5ccn(C)c5=O)c(Cl)c4)c3O)cc3c2ncn3C)CCN1 | 9.00 to 11.00
4. CC(=O)Nc1ccc(-c2cc(F)cc(-c3ccc(Cl)c(N4CCNCC4)c3)c2O)cc1F | 8.00 to 9.00
5. CCC[C@@H]1CN(c2cc(-c3cc(F)cc(-c4ccc(-n5ccn(C)c5=O)c(Cl)c4)c3O)cc3[nH]ncc23)CCN1 | 8.00 to 9.00

Need pIC50 of O=C1N(c2ccc(-c3cccc(-c4ccnc(N5CCNCC5)c4)c3O)cc2Cl)CCC12CC2 , thanks.
7.00 to 8.00

Need pIC50 of C[C@@H]1CN(c2cc(-c3cc(F)cc(-c4ccc(-n5ccn(C)c5=O)c(Cl)c4)c3O)ccn2)C[C@H](C)N1 , thanks.
8.00 to 9.00

====

The following compounds are listed with their measured IC50 values.
Biological target: human BRD4 bromodomain II (Homo sapiens, UniProt O60885)
Construct: human BRD4 bromodomain II [based on Genbank NM_058243, residues 349-460]; host or cells: E. coli
Assay: Bromodomain binding assay (AlphaScreen), BRD4 BDII
Conditions: AlphaScreen assay, Table C2; read-out: BRD4 BDII IC50

Reference set (5 entries):
1. COc1ncc(-c2cc(F)cc(-c3ccc(-n4ccn(C)c4=O)c(Cl)c3)c2O)cc1N1CC(O)(CO)C1 | 0.01 to 1 nM
2. CC(C)N1CCC2CN(c3cc(-c4cc(F)cc(-c5ccc(-n6ccn(C)c6=O)c(Cl)c5)c4O)ccn3)CC21 (stereo not shown) | 0.01 to 1 nM
3. Cn1ccn(-c2ccc(-c3cc(F)cc(-c4cc(N5CC[C@H](N)C5)c5nc[nH]c5c4)c3O)cc2Cl)c1=O | 1 to 10 nM
4. CC(C)N1CCN(c2cc(-c3cc(F)cc(-c4ccc(-n5ccn(C)c5=O)c(Cl)c4)c3O)cnn2)CC1 | 0.01 to 1 nM
5. CC(=O)Nc1ccc(-c2cc(C)cc(-c3ccnc(N4CCNCC4)c3)c2O)cc1F | 1 to 10 nM

Need IC50 of CC1CCN(c2ccc(-c3cccc(-c4ccnc(N5CCNCC5)c4)c3O)cc2Cl)C1=O (stereo not shown) , thanks.
1 to 10 nM

Need IC50 of Cn1ccn(-c2ccc(-c3cc(F)cc(-c4ccnc(N5CCC(O)(C(F)(F)F)C5)c4)c3O)cc2Cl)c1=O (stereo not shown) , thanks.
1 to 10 nM

Every entry's value here was drawn from patent US20250179059A1.
